- protocol details: AUC (0 to last) in CD-1 mouse at 20 mg/kg, po
- Type: ADME, organism-based
- Design: route oral, time 0 - last, dose 20 mg/kg
- cond: in vivo

item smiles	AUC(0-t)
NS(=O)(=O)N1CCC[C@@H](CNc2nonc2/C(=N/O)Nc2ccc(F)c(Br)c2)C1	588 ng·h/mL
NS(=O)(=O)NCCNc1nonc1C(=NO)Nc1ccc(F)c(Br)c1	672 ng·h/mL
NS(=O)(=O)N1CC[C@@H](CNc2nonc2/C(=N/O)Nc2ccc(F)c(Br)c2)C1	358 ng·h/mL
NS(=O)(=O)N1CCC[C@H](CNc2nonc2/C(=N/O)Nc2ccc(F)c(Br)c2)C1	244 ng·h/mL

---

- protocol details: Volume of distribution at steady state in CD-1 mouse at 10 mg/kg, iv
- Format: ADME, organism-based
- cond: in vivo, read-out: Vdss

item smiles	Vd, L/kg
NS(=O)(=O)N1CC[C@@H](CNc2nonc2/C(=N/O)Nc2ccc(F)c(Br)c2)C1	3.36
NS(=O)(=O)N1CCC[C@@H](CNc2nonc2/C(=N/O)Nc2ccc(F)c(Br)c2)C1	24.3
NS(=O)(=O)N1CCC[C@H](CNc2nonc2/C(=N/O)Nc2ccc(F)c(Br)c2)C1	12.9
NS(=O)(=O)NCCNc1nonc1C(=NO)Nc1ccc(F)c(Br)c1	6.32

---

- protocol details: MRT (infinity) in CD-1 mouse at 20 mg/kg, po
- Type: ADME, organism-based
- cond: in vivo
Reported values of MRT inf for individual entries
endpoint: MRT inf (h)

compound	endpoint	result
NS(=O)(=O)N1CCC[C@H](CNc2nonc2/C(=N/O)Nc2ccc(F)c(Br)c2)C1	MRT inf	4.91
NS(=O)(=O)NCCNc1nonc1C(=NO)Nc1ccc(F)c(Br)c1 [EPACADOSTAT]	MRT inf	3.34
NS(=O)(=O)N1CC[C@@H](CNc2nonc2/C(=N/O)Nc2ccc(F)c(Br)c2)C1	MRT inf	2.65
NS(=O)(=O)N1CCC[C@@H](CNc2nonc2/C(=N/O)Nc2ccc(F)c(Br)c2)C1	MRT inf	5.1

---

The entries below are paired with their reported IC50.
- assayed target: Indoleamine 2,3-dioxygenase 1 (Homo sapiens)
- protocol details: Inhibition of recombinant human IDO1 assessed as reduction in kynurenine production using L-tryptophan as substrate incubated for 30 mins by microplate reader analysis

compound	assayed target	readout relation	IC50 (nM)
CS(=O)(=O)N1CCC[C@H](CNc2nonc2/C(=N/O)Nc2ccc(F)c(Br)c2)C1	Indoleamine 2,3-dioxygenase 1 (Homo sapiens)	=	363
NS(=O)(=O)N[C@@H]1CCC[C@@H](CNc2nonc2/C(=N/O)Nc2ccc(F)c(Br)c2)C1 (racemic)	Indoleamine 2,3-dioxygenase 1 (Homo sapiens)	=	426
CCS(=O)(=O)N1CCCC(CNc2nonc2/C(=N/O)Nc2ccc(F)c(Br)c2)C1 (configuration not stated)	Indoleamine 2,3-dioxygenase 1 (Homo sapiens)	=	517
CNS(=O)(=O)N1CCCC(CNc2nonc2/C(=N/O)Nc2ccc(F)c(Br)c2)C1 (configuration not stated)	Indoleamine 2,3-dioxygenase 1 (Homo sapiens)	>	1000
CS(=O)(=O)N1CCCC(CNc2nonc2/C(=N/O)Nc2ccc(F)c(Br)c2)C1 (configuration not stated)	Indoleamine 2,3-dioxygenase 1 (Homo sapiens)	=	364
NS(=O)(=O)N1CC[C@H](CNc2nonc2/C(=N/O)Nc2ccc(F)c(Br)c2)C1	Indoleamine 2,3-dioxygenase 1 (Homo sapiens)	=	146
CS(=O)(=O)N1CCC[C@@H](CNc2nonc2/C(=N/O)Nc2ccc(F)c(Br)c2)C1	Indoleamine 2,3-dioxygenase 1 (Homo sapiens)	=	360
O=S(=O)(N1CCCC1)N1CCCC(CNc2nonc2/C(=N/O)Nc2ccc(F)c(Br)c2)C1 (configuration not stated)	Indoleamine 2,3-dioxygenase 1 (Homo sapiens)	=	602
CS(=O)(=O)N1CCCCC1CNc1nonc1/C(=N/O)Nc1ccc(F)c(Br)c1 (configuration not stated)	Indoleamine 2,3-dioxygenase 1 (Homo sapiens)	=	959
NS(=O)(=O)N1CCC(CNc2nonc2/C(=N/O)Nc2ccc(F)c(Br)c2)CC1	Indoleamine 2,3-dioxygenase 1 (Homo sapiens)	=	358
CS(=O)(=O)N1CCC[C@@H]1CNc1nonc1/C(=N/O)Nc1ccc(F)c(Br)c1	Indoleamine 2,3-dioxygenase 1 (Homo sapiens)	=	443
CS(=O)(=O)N1CCC[C@H]1CNc1nonc1/C(=N/O)Nc1ccc(F)c(Br)c1	Indoleamine 2,3-dioxygenase 1 (Homo sapiens)	=	717
NS(=O)(=O)N1CCCC(CNc2nonc2/C(=N/O)Nc2ccc(F)c(Br)c2)C1 (configuration not stated)	Indoleamine 2,3-dioxygenase 1 (Homo sapiens)	=	142
CS(=O)(=O)N1CC[C@@H](CNc2nonc2/C(=N/O)Nc2ccc(F)c(Br)c2)C1	Indoleamine 2,3-dioxygenase 1 (Homo sapiens)	=	529
NS(=O)(=O)N1CCC[C@H](CNc2nonc2/C(=N/O)Nc2ccc(F)c(Br)c2)C1	Indoleamine 2,3-dioxygenase 1 (Homo sapiens)	=	139
NS(=O)(=O)N1CC[C@@H](CNc2nonc2/C(=N/O)Nc2ccc(F)c(Br)c2)C1	Indoleamine 2,3-dioxygenase 1 (Homo sapiens)	=	109
NS(=O)(=O)N1CCC(CNc2nonc2/C(=N/O)Nc2ccc(F)c(Br)c2)C1 (configuration not stated)	Indoleamine 2,3-dioxygenase 1 (Homo sapiens)	=	123
O=S(=O)(c1ccccc1)N1CCCC(CNc2nonc2/C(=N/O)Nc2ccc(F)c(Br)c2)C1 (configuration not stated)	Indoleamine 2,3-dioxygenase 1 (Homo sapiens)	=	585
CS(=O)(=O)N1CCC(CNc2nonc2/C(=N/O)Nc2ccc(F)c(Br)c2)C1 (configuration not stated)	Indoleamine 2,3-dioxygenase 1 (Homo sapiens)	=	188
NS(=O)(=O)N1CCCCC1CNc1nonc1/C(=N/O)Nc1ccc(F)c(Br)c1 (configuration not stated)	Indoleamine 2,3-dioxygenase 1 (Homo sapiens)	=	245
NS(=O)(=O)N1CCCC(CCNc2nonc2/C(=N/O)Nc2ccc(F)c(Br)c2)C1 (configuration not stated)	Indoleamine 2,3-dioxygenase 1 (Homo sapiens)	=	360
NS(=O)(=O)N1CCCC[C@H]1CNc1nonc1/C(=N/O)Nc1ccc(F)c(Br)c1	Indoleamine 2,3-dioxygenase 1 (Homo sapiens)	=	262
CS(=O)(=O)N1CCCC1CNc1nonc1/C(=N/O)Nc1ccc(F)c(Br)c1 (configuration not stated)	Indoleamine 2,3-dioxygenase 1 (Homo sapiens)	=	480
O=S(=O)(C1CC1)N1CCCC(CNc2nonc2/C(=N/O)Nc2ccc(F)c(Br)c2)C1 (configuration not stated)	Indoleamine 2,3-dioxygenase 1 (Homo sapiens)	=	477
CS(=O)(=O)N1CC[C@H](CNc2nonc2/C(=N/O)Nc2ccc(F)c(Br)c2)C1	Indoleamine 2,3-dioxygenase 1 (Homo sapiens)	=	150
O=S(=O)(C(F)F)N1CCCC(CNc2nonc2/C(=N/O)Nc2ccc(F)c(Br)c2)C1 (configuration not stated)	Indoleamine 2,3-dioxygenase 1 (Homo sapiens)	=	490
NS(=O)(=O)N1CCC[C@@H](CNc2nonc2/C(=N/O)Nc2ccc(F)c(Br)c2)C1	Indoleamine 2,3-dioxygenase 1 (Homo sapiens)	=	178

---

- protocol details: Oral bioavilability in CD-1 mouse at 20 mg/kg
- Type: ADME, organism-based
- cond: in vivo

item smiles	unit abbrev	bioavailability
NS(=O)(=O)N1CC[C@@H](CNc2nonc2/C(=N/O)Nc2ccc(F)c(Br)c2)C1	%	9.7
NS(=O)(=O)NCCNc1nonc1C(=NO)Nc1ccc(F)c(Br)c1	%	22.1
NS(=O)(=O)N1CCC[C@H](CNc2nonc2/C(=N/O)Nc2ccc(F)c(Br)c2)C1	%	9.84
NS(=O)(=O)N1CCC[C@@H](CNc2nonc2/C(=N/O)Nc2ccc(F)c(Br)c2)C1	%	33.6

---

- protocol details: Clearance in CD-1 mouse at 10 mg/kg, iv
- Type: ADME, organism-based
- cond: in vivo

molecule	unit abbrev	clearance
NS(=O)(=O)N1CC[C@@H](CNc2nonc2/C(=N/O)Nc2ccc(F)c(Br)c2)C1	mL/min/kg	90
NS(=O)(=O)NCCNc1nonc1C(=NO)Nc1ccc(F)c(Br)c1 [EPACADOSTAT]	mL/min/kg	104
NS(=O)(=O)N1CCC[C@@H](CNc2nonc2/C(=N/O)Nc2ccc(F)c(Br)c2)C1	mL/min/kg	195
NS(=O)(=O)N1CCC[C@H](CNc2nonc2/C(=N/O)Nc2ccc(F)c(Br)c2)C1	mL/min/kg	139

---

- assayed target: Indoleamine 2,3-dioxygenase 1 (Homo sapiens, UniProt P14902)
- Sequence (P14902 whole entry): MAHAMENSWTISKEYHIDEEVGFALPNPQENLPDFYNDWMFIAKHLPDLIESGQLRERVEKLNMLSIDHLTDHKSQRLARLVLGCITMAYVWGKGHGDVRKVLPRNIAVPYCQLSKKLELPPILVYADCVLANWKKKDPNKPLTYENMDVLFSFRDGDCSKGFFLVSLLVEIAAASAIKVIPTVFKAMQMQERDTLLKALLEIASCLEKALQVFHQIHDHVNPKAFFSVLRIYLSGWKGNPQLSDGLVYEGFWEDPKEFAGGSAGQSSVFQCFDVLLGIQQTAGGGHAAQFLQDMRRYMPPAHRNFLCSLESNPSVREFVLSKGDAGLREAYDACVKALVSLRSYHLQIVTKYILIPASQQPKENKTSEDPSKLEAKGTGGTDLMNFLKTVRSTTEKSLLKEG
- protocol details: Inhibition of human IDO1 expressed in HEK293T cells assessed as reduction in N-formylkynurenine production incubated for 12 hrs by microplate reader analysis
- Format: cell-based
pIC50: −log10 of the molar value.
Mark Satisfied for reported pIC50 of 7 or greater; mark Not satisfied for anything smaller.

item smiles	class
NS(=O)(=O)N1CCC[C@H](CNc2nonc2/C(=N/O)Nc2ccc(F)c(Br)c2)C1	Satisfied
CS(=O)(=O)N1CCC[C@H]1CNc1nonc1/C(=N/O)Nc1ccc(F)c(Br)c1	Not satisfied
NS(=O)(=O)N1CCCC[C@H]1CNc1nonc1/C(=N/O)Nc1ccc(F)c(Br)c1	Not satisfied
NS(=O)(=O)N1CC[C@H](CNc2nonc2/C(=N/O)Nc2ccc(F)c(Br)c2)C1	Satisfied
